test: Half life in Sprague-Dawley rat at 50 mg/kg, po administered as single dose via gavage by LC/MS analysis; type: ADME, organism-based; details: in vivo
metric_name: half-life (h)

[[record]]
mol = "Cl.Cn1ncc(Cl)c1-c1ccc(C(=O)N[C@@H]2CNCC[C@H]2c2cccc(F)c2)cc1"
metric_name = "half-life"
measure_unit = "h"
readout_number = 7.77


---

Items are presented alongside their recorded fold induction at 0.3 µM.
tested on: RAW264.7; assay: Modulation of M1 polarization in mouse RAW264.7 cells assessed as change in Mcp1 mRNA expression at 300 nM measured after 24 hrs by qRT-PCR analysis relative to control; assay type: functional, cell-based; conditions: RAW264.7, 24 h, read-out: FC
metric_name: fold induction at 0.3 µM

[[record]]
compound = "Cc1ccc(C(=O)N[C@@H]2CNCC[C@H]2c2cccc(F)c2)s1.Cl"
metric_name = "fold induction at 0.3 µM"
readout_number = 1.54

[[record]]
compound = "Cl.Cn1nccc1-c1ccc(C(=O)N[C@@H]2CNCC[C@H]2c2ccc(F)c(F)c2)cn1"
metric_name = "fold induction at 0.3 µM"
readout_number = 1.23

[[record]]
compound = "Cl.Cn1ncc(Cl)c1-c1ccc(C(=O)N[C@@H]2CNCC[C@H]2c2ccc(F)c(F)c2)cn1"
metric_name = "fold induction at 0.3 µM"
readout_number = 1.01

[[record]]
compound = "Cl.O=C(N[C@@H]1CNCC[C@H]1c1cccc(F)c1)c1ccccc1F"
metric_name = "fold induction at 0.3 µM"
readout_number = 1.72

[[record]]
compound = "Cl.Cn1nccc1-c1ccc(C(=O)N[C@H]2CCCNC2)c(F)c1"
metric_name = "fold induction at 0.3 µM"
readout_number = 2.26

[[record]]
compound = "O=C1NCCN(C(=O)c2ccc(-c3cc[nH]n3)cc2)C1Cc1ccccc1 (stereo unspecified)"
metric_name = "fold induction at 0.3 µM"
readout_number = 1.53


---

Items are presented alongside their recorded fold change (FC).
test system: RAW264.7; experiment: Modulation of M2 polarization in mouse RAW264.7 cells assessed as change in Arg1 mRNA expression at 300 nM measured after 24 hrs by qRT-PCR analysis relative to control; assay type: functional
metric_name: fold change (FC)

[[record]]
compound = "Cl.Cn1ncc(Br)c1-c1ccc(C(=O)N[C@@H]2CNCC[C@H]2c2cccc(F)c2)cc1Cl"
readout_number = 10.12

[[record]]
compound = "CCNC(=O)c1ccc(-c2ccnn2C)cc1F"
readout_number = 2.31

[[record]]
compound = "Cl.Cn1nccc1-c1ccc(C(=O)N[C@@H]2CNCC[C@H]2c2ccc(F)c(F)c2)cn1"
readout_number = 0.85

[[record]]
compound = "Cl.Cn1ncc(Cl)c1-c1ccc(C(=O)N[C@@H]2CNCC[C@H]2c2ccc(Cl)c(C(F)(F)F)c2)c(F)c1"
readout_number = 10.33

[[record]]
compound = "Cc1ccc([C@@H]2CN(C(=O)c3ccc(-c4ccn[nH]4)cc3)C[C@H]2N(C)C)cc1"
readout_number = 4.85

[[record]]
compound = "Cl.Cn1nccc1-c1ccc(C(=O)N[C@@H]2CNCC[C@H]2c2ccc(Cl)c(C(F)(F)F)c2)cc1Cl"
readout_number = 5.08

[[record]]
compound = "Cn1nccc1-c1ccc(C(=O)N[C@@H]2CNCC[C@H]2c2ccc(F)c(F)c2)cc1.O=C(O)C(O)C(O)C(=O)O"
readout_number = 3.42

[[record]]
compound = "Cc1cc(C(=O)N[C@@H]2CNCC[C@H]2c2ccc(Cl)c(C(F)(F)F)c2)ccc1-c1c(Cl)cnn1C.Cl"
readout_number = 1.82

[[record]]
compound = "Cn1nccc1C(=O)N1CC(c2cc(F)cc(F)c2)C2[C@H]1C1CCN2CC1 (single isomer, unassigned)"
readout_number = 1.16

[[record]]
compound = "Cn1ncc(Br)c1-c1ccc(C(=O)N[C@@H]2CNCC[C@H]2c2ccc(F)c(F)c2)cc1.O=C(O)C(O)C(O)C(=O)O"
readout_number = 2.27

[[record]]
compound = "Cl.Cn1nccc1-c1ccc(C(=O)N[C@@H]2CNCC[C@H]2c2ccc(F)c(F)c2)c(F)c1"
readout_number = 3.99

[[record]]
compound = "O=C(NCCN1CCCC(c2ccccc2)C1)c1ccc(-c2ccn[nH]2)cc1 (stereo not drawn)"
readout_number = 1.48

[[record]]
compound = "COc1ccccc1C(=O)N[C@@H]1CNCC[C@H]1c1cccc(F)c1.Cl"
readout_number = 1.32

[[record]]
compound = "CC(=O)N[C@@H]1Cc2ccccc2[C@H]1NC(=O)c1cn[nH]c1-c1cccc(F)c1"
readout_number = 0.8

[[record]]
compound = "Cc1cc(C(=O)N[C@@H]2CNCC[C@H]2c2cccc(F)c2)ccc1-c1c(Cl)cnn1C.Cl"
readout_number = 8.35

[[record]]
compound = "Cl.Cn1ncc(Br)c1-c1ccc(C(=O)N[C@@H]2CNCC[C@H]2c2ccc(F)c(F)c2)cn1"
readout_number = 0.56

[[record]]
compound = "Cl.Cn1nccc1-c1ccc(C(=O)N[C@H]2CCCNC2)c(F)c1"
readout_number = 2.11

[[record]]
compound = "CN(CC1Cc2ccccc2CN1C)C(=O)c1ccc(-c2ccn[nH]2)cc1 (stereo not drawn)"
readout_number = 2.35

